Tested on: goldfish retinal ganglion cells
assay_text: Goldfish retinal ganglion cell culture, axon outgrowth bioassay
Type: cell-based
cond: Carassius auratus; goldfish RGCs; FIG. 7c; read-out: ED50 of axon outgrowth

molecule: O=C[C@@H](O)[C@@H](O)[C@H](O)[C@H](O)CO
EC50: ~10 µM

* * *

System: goldfish retinal ganglion cells
assay_text: Goldfish retinal ganglion cell culture, axon outgrowth bioassay
Format: cell-based
cond: goldfish RGCs; 6-TG 20 μM, NBTI 20 μM, forskolin 10 μM, Sp-cAMPs 150 μM, Rp-cAMPs 100 μM, H89 5 μM; FIG. 2, 4
readout_label: effect on axon growth induced by AF-1

molecule: Nc1ncnc2c1ncn2[C@@H]1O[C@@H]2CO[P@@](O)(=S)O[C@H]2[C@H]1O
meas_value: not diminished
--
molecule: O=S(=O)(NCCNC/C=C/c1ccc(Br)cc1)c1cccc2cnccc12
meas_value: not diminished
